# System: RXRa DBDmut IVT, anti-RXR (DBD mutation: RXRa K156A/R161A, NR concentration 90 nM)
# test_protocol: PBM binding z-score (relative to random genomic background probes); higher = stronger binding; sequences stand for … in GC…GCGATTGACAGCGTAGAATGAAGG
Reported PBM binding z-score is given for each of the following sequences.
reported_metric: PBM binding z-score

                         sequence_text    value
 0  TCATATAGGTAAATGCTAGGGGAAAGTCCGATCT     1.85
 1  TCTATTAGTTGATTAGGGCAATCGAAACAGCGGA    0.966
 2  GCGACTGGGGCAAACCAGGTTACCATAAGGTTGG   -0.486
 3  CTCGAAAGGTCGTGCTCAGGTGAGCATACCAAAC     2.21
 4  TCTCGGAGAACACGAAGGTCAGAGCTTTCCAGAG     0.25
 5  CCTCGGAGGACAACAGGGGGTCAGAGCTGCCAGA     0.19
 6  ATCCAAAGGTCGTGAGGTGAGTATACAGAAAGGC     1.72
 7  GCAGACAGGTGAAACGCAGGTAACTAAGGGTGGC    -0.64
 8  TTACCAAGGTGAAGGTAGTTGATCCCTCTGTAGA   -0.443
 9  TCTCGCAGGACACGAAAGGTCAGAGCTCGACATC     1.05
10  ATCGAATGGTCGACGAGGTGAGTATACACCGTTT    -0.27
11  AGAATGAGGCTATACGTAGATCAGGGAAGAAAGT  -0.0879
12  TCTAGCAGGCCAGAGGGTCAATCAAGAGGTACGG   -0.246
13  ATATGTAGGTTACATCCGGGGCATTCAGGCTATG     0.51
14  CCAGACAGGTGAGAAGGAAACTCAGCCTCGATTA   -0.203
15  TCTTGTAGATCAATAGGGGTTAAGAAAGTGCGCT     1.53
16  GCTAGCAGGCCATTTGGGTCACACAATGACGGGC  -0.0753
17  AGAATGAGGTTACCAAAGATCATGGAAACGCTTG     1.21
18  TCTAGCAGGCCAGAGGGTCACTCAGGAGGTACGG   0.0347
19  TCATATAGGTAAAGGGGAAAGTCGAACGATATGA     1.39
20  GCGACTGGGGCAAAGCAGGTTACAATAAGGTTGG  -0.0572
21  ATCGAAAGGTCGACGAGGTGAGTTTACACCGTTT     1.48
22  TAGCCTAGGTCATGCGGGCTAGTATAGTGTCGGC    0.197
23  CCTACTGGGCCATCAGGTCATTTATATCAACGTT    0.641
24  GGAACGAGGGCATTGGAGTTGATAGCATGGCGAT     2.75
25  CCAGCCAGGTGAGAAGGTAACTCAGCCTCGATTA   -0.801
26  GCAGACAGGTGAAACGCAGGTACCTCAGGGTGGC   -0.949
27  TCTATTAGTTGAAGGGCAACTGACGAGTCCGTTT     1.49
28  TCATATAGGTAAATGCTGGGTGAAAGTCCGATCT     1.48
29  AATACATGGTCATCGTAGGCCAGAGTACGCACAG   -0.177
30  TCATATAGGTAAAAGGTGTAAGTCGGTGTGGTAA     1.55
31  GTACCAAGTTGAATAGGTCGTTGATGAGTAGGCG    0.103
32  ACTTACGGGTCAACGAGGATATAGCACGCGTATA     2.12
33  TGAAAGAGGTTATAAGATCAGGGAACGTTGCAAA    0.022
34  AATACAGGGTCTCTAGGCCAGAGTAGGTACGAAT   -0.254
35  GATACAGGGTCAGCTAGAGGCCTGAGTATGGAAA     1.14
36  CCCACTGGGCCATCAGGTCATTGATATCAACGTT   -0.268
37  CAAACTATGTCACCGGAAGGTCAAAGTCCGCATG     1.32
38  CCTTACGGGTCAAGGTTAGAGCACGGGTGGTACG  -0.0809
39  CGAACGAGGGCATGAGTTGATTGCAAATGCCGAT     2.73
40  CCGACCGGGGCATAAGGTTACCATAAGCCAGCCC   -0.289
41  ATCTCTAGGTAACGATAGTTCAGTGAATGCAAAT   -0.137
